Test system: A/H3N2 (A/HK/7/87)
assayInfo: microbe, parasite or virus in culture
Assay type: cell-based
experimentalContext: read-out: Antiviral EC50 A/H3N2 (A/HK/7/87)
quantityName: EC50 (µM)
State just the number; it will be interpreted in µM.

Note to self: EC50 of C1=CC2C3C4C5C=CC4C24CNCC54C13 with A/H3N2 (A/HK/7/87) was 14

====

System: A/H1N1 (A/PR/8/34)
assayInfo: microbe, parasite or virus in culture
Format: cell-based, influenza A virus
experimentalContext: read-out: Antiviral EC50 A/H1N1 (A/PR/8/34)
quantityName: pEC50
Here pEC50 is given on a logarithmic scale as minus log10 of the concentration in mol/L.

Query C1=CC2C3C4C5C=CC4C24CNCC54C13 yields pEC50 of 4.80

Values from paper PMC7114147
